This collection of values is drawn from ChEMBL document CHEMBL1127615.

molecular target: Protein kinase C (PKC); assay: Inhibition of Serine/threonine protein kinases C; assay type: protein assay, Homo sapiens
Assignment: determine reported IC50 for the given compounds.

These recorded examples may help you get a feel for the data.
| Smiles repr | Result |
| --- | --- |
| COc1cc2cc(-c3ccncc3)cnc2cc1OC | > 10 µM |
| Oc1cc2cc(-c3ccncc3)cnc2cc1O | > 10 µM |
| Clc1ccc2cc(-c3ccncc3)cnc2c1 | > 10 µM |

Kindly review the next compound as well.
# input Entry COc1cc(OC)c2cc(-c3ccncc3)cnc2c1 has what IC50?
# output > 10 µM

* * *

What pIC50 was measured for each of the following?
target: Platelet-derived growth factor receptor (Homo sapiens, UniProt P09619+P16234); assay: Inhibition of Platelet-derived growth factor receptor tyrosine kinase
Give bare numbers, as −log10 of the molar value.

| Smiles repr | Number |
| --- | --- |
| COc1ccc2cc(-c3ccncc3)cnc2c1 | 6.22 |

Fill in pIC50 for each of the 3 molecules listed.
1. COc1ccc2ncc(-c3ccncc3)cc2c1
2. Oc1ccc2cc(-c3ccncc3)cnc2c1
3. Oc1cc2cc(-c3ccncc3)cnc2cc1O

# output
[6.40, 5.04, 4.44]
